observed property: melting point

Example cases with answers are listed next.
molecule="O=C(CC1=CCOCC1)N1CCC(C2c3ncc(Br)cc3CCc3cc(Cl)cc(Br)c32)CC1 (stereo not shown)" observed_property="melting point" reported_result="110.3 to 113.9 °C"
molecule="O=C(CC1COCCO1)N1CCC(C2c3ncc(Br)cc3CCc3cc(Cl)cc(Br)c32)CC1 (stereo not shown)" observed_property="melting point" reported_result="111 to 124 °C (dec.)"
molecule="O=C(CC1CCCO1)N1CCC(C2c3ncc(Br)cc3CCc3cc(Cl)cc(Br)c32)CC1 (stereo not shown)" observed_property="melting point" reported_result="107 to 115 °C (dec.)"

Lab note: next molecule to report on.
## Task Could you share which melting point value was measured for O=C(CC1CCCCO1)N1CCC(C2c3ncc(Br)cc3CCc3cc(Cl)cc(Br)c32)CC1 (stereo not shown) ?
## Result 116 to 122 °C (dec.)

* * *

As shown below, each of these compounds has a reported IC50 value.
System: COS Cell
protocol notes: COS Cell IC50 (Cell-Based Assay)
setup conditions: cell-based assay
Kindly provide the numeric value in nM only, without the unit symbol.

compound="O=C(C1CC2CCC1CO2)N1CCC(C2c3ncc(Br)cc3CCc3cc(Cl)cc(Br)c32)CC1 (single isomer, unassigned) [Example 29]" unit_symbol=nM reported_result=30

Lab note: next compound to report on.
## Task Could you share which IC50 value was measured for O=C(C1CC2CCC1CO2)N1CCC(C2c3ncc(Br)cc3CCc3cc(Cl)cc(Br)c32)CC1 (single isomer, unassigned) [Example 30] ?
## Result 75

These data points were gathered from patent US6440974B2.
